Assay: molar heat capacity at constant pressure
Conditions: 342.27 K; 1000 kPa; Liquid
property_measured: molar heat capacity at constant pressure (J/K/mol)

Data request: Tell me its molar heat capacity at constant pressure given CCOCCOCCOCC as the entry.
Data returned: 355.44

Data request: Report molar heat capacity at constant pressure for CCCCOCCOCCOCCOCCCC
Data returned: 559.14

Data request: Quick one: give measured molar heat capacity at constant pressure for COCC(C)OCC(C)OC (centres undefined)
Data returned: 340.35

Data request: Fill in reported molar heat capacity at constant pressure for this entry: CCCCOCCOCCOCCCC
Data returned: 470.51

----------
Settings: 293.15 K; 101.33 kPa; Liquid; Capillary tube (Ostwald / Ubbelohde) method
property_measured: kinematic viscosity (m2/s)

Data request: Identify measured kinematic viscosity corresponding to CCCCOCCOCCOCCOCCCC [5,8,11,14-tetraoxaoctadecane]
Data returned: 4.16e-06

Data request: Provide only the value of recorded kinematic viscosity for CCOCCOCCOCC [diethylene glycol diethyl ether]
Data returned: 1.5e-06

(P) CCCCOCCOCCOCCCC [5,8,11-trioxapentadecane]
(Q) COCC(C)OCC(C)OC (centres undefined) [2-methoxy-1-(2-methoxy-1-methylethoxy)propane]
Data request: Just curious, which one has the larger kinematic viscosity reading, P or Q ? // caller expects the label of the chosen entry
Data returned: P

----------
Details: 343.15 K; 1000 kPa; Liquid; Vibrating tube method
property_measured: mass density (kg/m3)

Data request: Provide measured mass density value, entry: CCCCOCCOCCOCCCC [5,8,11-trioxapentadecane]
Data returned: 842.1

Data request: Identify measured mass density associated with CCCCOCCOCCOCCOCCCC [5,8,11,14-tetraoxaoctadecane]
Data returned: 876.5

Data request: Answer with reported mass density of COCC(C)OCC(C)OC (stereo not given) [2-methoxy-1-(2-methoxy-1-methylethoxy)propane]
Data returned: 856.5

Data request: Give the measured mass density for CCOCCOCCOCC [diethylene glycol diethyl ether]
Data returned: 860.2

Data request: Give recorded mass density. CCOCCOCC [1,2-diethoxyethane]
Data returned: 801.1

----------
Settings: 323.15 K; 1000 kPa; Liquid; Vibrating tube method
property_measured: mass density (kg/m3)

Data request: Identify the reported mass density for the following entry. CCCCOCCOCCOCCCC [5,8,11-trioxapentadecane]
Data returned: 858.5

Data request: Give mass density for the following compound: CCOCCOCC [1,2-diethoxyethane]
Data returned: 822

Data request: Give reported mass density value for CCOCCOCCOCC [diethylene glycol diethyl ether]
Data returned: 879.5

Data request: Return mass density (reported value) for this compound: CCCCOCCOCCOCCOCCCC [5,8,11,14-tetraoxaoctadecane]
Data returned: 893

Data request: Name the recorded mass density of the compound listed here: COCC(C)OCC(C)OC (stereo not given) [2-methoxy-1-(2-methoxy-1-methylethoxy)propane]
Data returned: 875.4

----------
Assay: molar heat capacity at constant pressure
Details: 401.68 K; 1000 kPa; Liquid
property_measured: molar heat capacity at constant pressure (J/K/mol)

Field: example entries. Status: answers known.
Data request: Answer with the recorded molar heat capacity at constant pressure for the molecule listed here: CCCCOCCOCCOCCCC
Data returned: 505.44

Data request: Fill in reported molar heat capacity at constant pressure for this entry: COCC(C)OCC(C)OC (centres undefined)
Data returned: 369.71

(a) CCCCOCCOCCOCCOCCCC
(b) CCOCCOCCOCC
Data request: Among a and b , which shows a numerically higher molar heat capacity at constant pressure result? Select an item and report its label.
Data returned: a
(a: 597.71 J/K/mol, b: 377.01 J/K/mol)
